assay procedure: Solubility of the HBr salt of Form A in selected solvents, estimated by solvent addition under ambient conditions
Format: physicochemical
conditions: DMF/water (1:1), aqueous with cosolvent or surfactant or cyclodextrin, thermodynamic from solid, solvent DMF/water (1:1), read-out: Solubility

| compound | solubility / mg/mL |
| --- | --- |
| Cc1cc(Nc2nc(C(O)c3ccc(F)cc3)nc3ccccc23)n[nH]1 (stereo not shown) [Form A] | 30 |

* * *

assay procedure: Solubility of the HBr salt of Form A in selected solvents, estimated by solvent addition under ambient conditions
Assay type: physicochemical
conditions: dimethylformamide, organic solvent or mixture, thermodynamic from solid, solvent DMF, read-out: Solubility
Protocol: The solubility of the HBr salt of Form A in selected solvents was estimated by solvent addition under ambient conditions to provide preliminary information for the polymorph screen. […] This material is sparingly soluble in methanol, methanol/chloroform (1:1), and methanol/tetrahydrofuran (˜14-20 mg/mL).

| compound | solubility |
| --- | --- |
| Cc1cc(Nc2nc(C(O)c3ccc(F)cc3)nc3ccccc23)n[nH]1 (stereo not shown) [Form A] | > 114 mg/mL |
